# subject_of_test: T1, human PD-L1-Fc protein (human, UniProt Q9NZQ7 19-239)
# T1 construct: Bought from R&D Systems; also called immobilised PD-L1-Fc; not shown: Fc part of the bought fusion protein, not described
# experiment_summary: BIAcore off rate, unpurified periplasmic extract Fab on PD-L1, pH 6
assay_metric: koff (s⁻¹)
Give a bare numeral; the unit s⁻¹ is implied.

QUERY: # lookup: koff of Fab 8G08 (Fab, V domains shown, Purified Fab prepared from IgG with the Pierce kit; also called 8G08 Fab) VH: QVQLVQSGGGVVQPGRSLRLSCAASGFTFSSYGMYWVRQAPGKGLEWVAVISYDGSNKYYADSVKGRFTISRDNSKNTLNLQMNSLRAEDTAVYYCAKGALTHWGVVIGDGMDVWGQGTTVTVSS VL: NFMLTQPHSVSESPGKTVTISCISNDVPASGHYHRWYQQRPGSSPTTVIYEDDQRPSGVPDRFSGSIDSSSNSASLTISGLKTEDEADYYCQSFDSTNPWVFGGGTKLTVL
RESULT: 0.000823

QUERY: # lookup: koff of Fab 8B06 (Fab, V domains shown, Purified Fab prepared from IgG with the Pierce kit; also called 8B06 Fab) VH: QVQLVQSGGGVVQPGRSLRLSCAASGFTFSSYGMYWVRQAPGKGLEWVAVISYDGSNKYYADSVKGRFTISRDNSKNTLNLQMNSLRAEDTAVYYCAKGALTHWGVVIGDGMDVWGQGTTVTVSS VL: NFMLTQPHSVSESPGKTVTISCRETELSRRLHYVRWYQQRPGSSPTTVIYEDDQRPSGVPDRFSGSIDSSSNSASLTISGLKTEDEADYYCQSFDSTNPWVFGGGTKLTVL
RESULT: 0.00135
